Tgt: T1, Ala mutant SEQ ID NO: 29 (human)
T1 sequence (peptide): EEAMDDQWMQDEMEIGY
Protocol Notes: ELISA, peptide on plate (10 ug/mL)
Recorded Endpoint: absorbance 490 nm/630 nm (OD)
Give bare numbers, in OD.

A selection of reference data follows.
E9 (antibody, IgG1, V domains shown) VH: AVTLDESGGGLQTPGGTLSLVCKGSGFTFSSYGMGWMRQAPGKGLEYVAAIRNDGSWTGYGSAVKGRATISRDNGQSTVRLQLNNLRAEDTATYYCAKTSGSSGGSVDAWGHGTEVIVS VL: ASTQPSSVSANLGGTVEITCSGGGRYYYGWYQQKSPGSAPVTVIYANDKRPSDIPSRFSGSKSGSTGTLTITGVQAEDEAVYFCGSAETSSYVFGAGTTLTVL = 1.92
G9 (antibody, IgG1, V domains shown) VH: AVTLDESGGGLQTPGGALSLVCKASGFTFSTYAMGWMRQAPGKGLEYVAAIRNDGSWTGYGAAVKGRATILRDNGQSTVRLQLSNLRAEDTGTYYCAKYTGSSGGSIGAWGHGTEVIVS VL: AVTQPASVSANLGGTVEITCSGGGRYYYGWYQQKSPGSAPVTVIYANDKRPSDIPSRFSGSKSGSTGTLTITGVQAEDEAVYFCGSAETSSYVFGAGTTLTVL = 1.94

Switching to the query record.
Note to self: absorbance 490 nm/630 nm recorded for H7 (antibody, IgG1, V domains shown) VH: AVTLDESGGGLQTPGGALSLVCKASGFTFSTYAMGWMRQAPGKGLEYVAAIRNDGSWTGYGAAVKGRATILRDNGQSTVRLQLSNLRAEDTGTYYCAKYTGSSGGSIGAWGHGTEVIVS VL: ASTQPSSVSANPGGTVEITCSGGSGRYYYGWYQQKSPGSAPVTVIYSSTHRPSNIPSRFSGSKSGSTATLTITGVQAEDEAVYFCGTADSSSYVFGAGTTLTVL was 1.9
